Where do the numbers come from? From patent US20190284262A1.

- assay.system: T1, 017-mut9 peptide (…)/HLA-A*02:01 complex on T2 cells (human)
- T1 construct: Alanine mutant at position 9
- test.description: flow cytometry, phage on peptide-loaded T2 cells
Listed below: MFI values for each entry.
The answer should be written as a number, with no unit following it.

[[record]]
binder = "EXT017-32 scFv phage clone (scFv, also called EXT017-32 phage; phage clone #32) scFv: QSVLTQPPSVSVAPGKTARITCGGNNIGSKSVHWYQQKPGQAPVLVIYYDSDRPSGIPERFSGSNSGNTATLTISRVEAGDEADYYCQVWDSSSDHYVFGTGTKVTVLGSRGGGGSGGGGSGGGGSLEMAEVQLVESGGGVVQPGRSLRLSCAASGFTFNNHAMHWVRQAPGKGLEWVAVISFDGDDKFYADSVKGRFTISRDNSRNTLFLQMNNLRPEDTAVYYCSRDPYHFASGSYSYFDYWGQGTLVTVSSTSGQAGQHHHHHHGAYPYDVPDYAS"
parameter_measured = "MFI"
readout_number = 93.6


Ask: Which MFI is listed for EXT017-20 scFv phage clone (scFv, full-length scFv with His+HA tags; also called EXT017-20 phage) scFv: QSVVTQPPSVSAAPGQKVTISCSGSSSNIGAGYDVHWYQQLPGTAPKLLIYGNSNRPSGVPDRFSGSKSGTSASLAITGLQAEDEADYYCQSYDSSLSGSVFGGGTKLTVLGSRGGGGSGGGGSGGGGSLEMAEVQLVQSGAEVKKPGSSVKVSCKASGGTFSSYAISWVRQAPGQGLEWMGGIIPIFGTANYAQKFQGRVTITADESTSTAYMELSSLRSEDTAVYYCARYSYKYGELDTWGQGTLVTVSSTSGQAGQHHHHHHGAYPYDVPDYAS ?
Result: 95.6

Ask: Which MFI is listed for EXT017-54 scFv phage clone (scFv, full-length scFv with His+HA tags; also called EXT017-54 phage) scFv: QAVLTQPPSLSGGPRQRVTISCSGSTSNIGKNGVSWYQQLPGKAPKLLIYNDHLLSSGVSDRFSGSKSGTSASLAISGLQSDDEADYYCATWDDTLDLPLFGGGTKVTVLGSRGGGGSGGGGSGGGGSLEMAQMQLVQSGAEVEKPGASVKLSCKASGGTFSSYAISWVRQAPGQGLEWMGGIIPIFGTANYAQKFQGRVTITADESTSTAYMELSSLRSEDTAVYYCARPSYYSIKSAWDHWGQGTLVTVSSTSGQAGQHHHHHHGAYPYDVPDYAS ?
Result: 3540

Ask: Which MFI is listed for EXT017-53 scFv phage clone (scFv, full-length scFv with His+HA tags; also called EXT017-53 phage) scFv: NFMLTQPHSVSESPGKTVTISCTRSSGSIASHYVQWYQQRPGSSPTTVIYENNQRPSGVPDRFSGSIDSSSNSASLTISGLKTEDEADYYCQSYDRSNHVVFGGGTKLTVLGSRGGGGSGGGGSGGGGSLEMAQVQLVQSGAEVKKPGASVKVSCKASGYTFTNYYIHWVRQAPGEGLEWMGIIRPSGGNTNYAQKFQGRVTMTRDTSTRTVYMELSSLRSEDTAVYYCARSWNSRDVDSWGQGTLVTVSSTSGQAGQHHHHHHGAYPYDVPDYAS ?
Result: 149

Ask: Which MFI is listed for EXT017-28 scFv phage clone (scFv, full-length scFv with His+HA tags; also called EXT017-28 phage; phage clone #28) scFv: QSVLTQPPSVSGAPGQRVTISCTGSSSNIGAGYDVHWYQQLPGTAPKLLIYGNSDRPSGVPDRFSGSKSGTSASLAITGLQAEDEADYYCQSYDSSLSGYVFGTGTKVTVLGSRGGGGSGGGGSGGGGSLEMAQMQLVQSGAEVKKPGSSVKVSCKASGGTFSTYAISWVRQAPGQGLEWMGGIIPIFGTANYAQKFQGRVTITADKSTSTAYMEVRNLRSEDTAVYYCARAEYVYGEYDQWGQGTLVTVSSTSGQAGQHHHHHHGAYPYDVPDYAS ?
Result: 5890

Ask: Which MFI is listed for EXT017-17 scFv phage clone (scFv, fusion to the phage coat protein not described; also called EXT017-17 phage; phage clone #17) scFv: QSVLTQPPSVSGAPGQRVTISCTGSSSNIGAGYDVHWYQQLPGTAPKLLIYGNSNRPSGVPDRFSGSKSGTSASLAITGLQAEDEADYYCQSYDSSLSGYVFGTGTKVTVLGSRGGGGSGGGGSGGGGSLEMAEVQLVQSGAEVKKPGSSVKVSCKASGDTFSRYAISWVRQAPGQGLEWMGRIIPIFGTPNYAQKFQGRVTITADEFTSTAYMELSSLRSEDTAMYYCARSIYRYSEYDHWGQGTLVTVSSTSGQAGQHHHHHHGAYPYDVPDYAS ?
Result: 94.7
